B1: LINE1-full (parent)
chain: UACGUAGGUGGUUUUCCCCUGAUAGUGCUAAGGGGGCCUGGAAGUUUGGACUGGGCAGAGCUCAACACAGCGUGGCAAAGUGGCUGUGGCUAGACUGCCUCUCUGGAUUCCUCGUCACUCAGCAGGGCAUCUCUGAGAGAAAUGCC

- Variants of: B1
- PROTOCOL: self-cleavage, relative activity (ratio to wild type); higher = more cleavage; in vitro, sequencing; the parent is a self-cleaving ribozyme
OBSERVATION TYPE: self-cleavage

variant_id="U39G U112A" experimental_result=1.65
variant_id="G58A A117U" experimental_result=0.05
variant_id="U9C U96G" experimental_result=0
variant_id="A22U U96G" experimental_result=0.53
variant_id="U62C C128U" experimental_result=0.03
variant_id="U26G U73A" experimental_result=1.61
variant_id="A142G C145U" experimental_result=1.11
variant_id="U12G A31G" experimental_result=0.87
variant_id="A59G U96A" experimental_result=0.07
variant_id="U26G U62C" experimental_result=0.19
variant_id="A43C A141U" experimental_result=1.46
variant_id="G74U A92G" experimental_result=0.06
variant_id="A79U U109C" experimental_result=1.34
variant_id="A138U A142C" experimental_result=2.14
variant_id="U39C A79U" experimental_result=1.2
variant_id="U39C A50G" experimental_result=0.77
variant_id="U15C U47C" experimental_result=1.64
variant_id="U9C A78U" experimental_result=2.65
variant_id="U9A G144A" experimental_result=1.19
variant_id="U62C C123U" experimental_result=0.01
variant_id="U20C A107G" experimental_result=1.6
variant_id="U52C G82A" experimental_result=1.7
variant_id="C37U A79C" experimental_result=1.22
variant_id="U26C C120U" experimental_result=1.17
variant_id="U5C C116A" experimental_result=1.29
variant_id="A42C G93A" experimental_result=0.03
variant_id="U12C A79G" experimental_result=1.1
variant_id="U87A A121G" experimental_result=0.1
variant_id="U47C U112A" experimental_result=1.02
variant_id="U109A U134C" experimental_result=1.67
variant_id="A78G U132C" experimental_result=1.39
variant_id="C98U U102C" experimental_result=0.55
variant_id="G72A A77U" experimental_result=1.44
variant_id="C18A U81C" experimental_result=1.31
variant_id="U20C G126U" experimental_result=1.92
variant_id="U39G U130C" experimental_result=1.25
variant_id="A50G C61U" experimental_result=0.05
variant_id="U12C U23A" experimental_result=1.08
variant_id="A65G A67G" experimental_result=0.09
variant_id="G33C A59G" experimental_result=0
variant_id="G53U U91C" experimental_result=0.54
variant_id="A59G A142G" experimental_result=0.07
variant_id="A64G G125U" experimental_result=0.33
variant_id="G86A U112A" experimental_result=0.08
variant_id=C99U experimental_result=0.57
variant_id="U15A U46C" experimental_result=0.76
